# run-description: Substrate specificity of WNanoKAZ mutants, crude enzyme solution (Example 11)
# Assay type: biochemical
# condition-summary: Imax
attribute-measured: Relative luminescence activity, bis-CTZ, Imax
// no unit string in output, number only

Request the reported Relative luminescence activity, bis-CTZ, Imax associated with WNanoKAZ-V90I: single amino acid-substituted WNanoKAZ mutant, valine 90 back to isoleucine; SEQ ID NO: 8 (protein) FTLADFVGDWQQTAGYNQDQVLEQGGLSSLFQALGVSVTPIQKVVLSGENGLKADIHVIIPYEGLSGFQMGLIEMIFKVVYPVDDHHFKIILHYGTLVIDGVTPNMIDYFGRPYEGIAVFDGKKITVTGTLWNGNKIIDERLINPDGSLLFRVTINGVTGWRLCERILA
23
